Collected pKi values appear next to each entry.
- experimental.target: Kappa-type opioid receptor (Cavia porcellus)
- Sequence (P41144 whole entry): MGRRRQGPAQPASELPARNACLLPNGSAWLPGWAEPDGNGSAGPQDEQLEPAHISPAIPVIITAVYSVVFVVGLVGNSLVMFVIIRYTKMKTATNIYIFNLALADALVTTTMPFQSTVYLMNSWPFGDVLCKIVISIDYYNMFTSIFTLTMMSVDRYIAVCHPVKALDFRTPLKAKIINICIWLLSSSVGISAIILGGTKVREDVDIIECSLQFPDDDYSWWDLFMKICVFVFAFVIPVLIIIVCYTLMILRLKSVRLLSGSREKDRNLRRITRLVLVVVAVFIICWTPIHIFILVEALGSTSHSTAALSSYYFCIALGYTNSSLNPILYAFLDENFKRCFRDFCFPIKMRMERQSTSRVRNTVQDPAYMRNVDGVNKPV
The scale used: pKi is minus the common logarithm of the concentration in molar units.

CN[C@@H](Cc1c(C)cc(O)cc1C)C(=O)N[C@H](CCCN=C(N)N)C(=O)N[C@@H](Cc1ccccc1)C(=O)N[C@@H](CCCCN)C(N)=O; 7.34
Cc1cc(O)cc(C)c1C[C@H](N)C(=O)N[C@H](CCCN=C(N)N)C(=O)N[C@@H](Cc1ccccc1)C(=O)N[C@@H](CCCN)C(N)=O; 7.58
NCCCC[C@H](NC(=O)[C@H](Cc1ccccc1)NC(=O)[C@@H](CCCN=C(N)N)NC(=O)[C@@H](N)Cc1ccc(O)cc1)C(N)=O; 5.37

# ---- query compound ----
// assay Kappa-type opioid receptor (Cavia porcellus), entry Cc1cc(O)cc(C)c1C[C@H](N)C(=O)N[C@H](CCCN=C(N)N)C(=O)N[C@@H](Cc1ccccc1)C(=O)N[C@@H](CCN)C(N)=O , pKi value = 7.32

---

Collected Ki values appear next to each entry.
- experimental.target: Mu-type opioid receptor (Cavia porcellus)
- Sequence (P97266 whole entry): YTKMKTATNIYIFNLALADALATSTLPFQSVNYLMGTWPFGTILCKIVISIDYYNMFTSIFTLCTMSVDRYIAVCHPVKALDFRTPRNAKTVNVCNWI
Field: numeric (nM). Do not append units.

Worked cases, answers included:
CN[C@@H](Cc1c(C)cc(O)cc1C)C(=O)N[C@H](CCCN=C(N)N)C(=O)N[C@@H](Cc1ccccc1)C(=O)N[C@@H](CCCCN)C(N)=O [Tmt-D-Arg-Phe-Lys-NH2]; 0.192
Cc1cc(O)cc(C)c1C[C@H](N)C(=O)N[C@H](CCCN=C(N)N)C(=O)N[C@@H](Cc1ccccc1)C(=O)N[C@@H](CCN)C(N)=O [H-Dmt-D-Arg-Phe-A2bu-NH2]; 0.803

// assay Mu-type opioid receptor (Cavia porcellus), entry Cc1cc(O)cc(C)c1C[C@H](N)C(=O)N[C@H](CCCN=C(N)N)C(=O)N[C@@H](Cc1ccccc1)C(=O)N[C@@H](CCCN)C(N)=O [Dmt-d-Arg-Phe-Orn-NH2] , Ki value = 0.151

// assay Mu-type opioid receptor (Cavia porcellus), entry NCCCC[C@H](NC(=O)[C@H](Cc1ccccc1)NC(=O)[C@@H](CCCN=C(N)N)NC(=O)[C@@H](N)Cc1ccc(O)cc1)C(N)=O [NSC_122222] , Ki value = 1.69
